- System Name: L calcium channel (Sus scrofa, UniProt A0A8W4FNC0)
- Sequence (A0A8W4FNC0 1-2067): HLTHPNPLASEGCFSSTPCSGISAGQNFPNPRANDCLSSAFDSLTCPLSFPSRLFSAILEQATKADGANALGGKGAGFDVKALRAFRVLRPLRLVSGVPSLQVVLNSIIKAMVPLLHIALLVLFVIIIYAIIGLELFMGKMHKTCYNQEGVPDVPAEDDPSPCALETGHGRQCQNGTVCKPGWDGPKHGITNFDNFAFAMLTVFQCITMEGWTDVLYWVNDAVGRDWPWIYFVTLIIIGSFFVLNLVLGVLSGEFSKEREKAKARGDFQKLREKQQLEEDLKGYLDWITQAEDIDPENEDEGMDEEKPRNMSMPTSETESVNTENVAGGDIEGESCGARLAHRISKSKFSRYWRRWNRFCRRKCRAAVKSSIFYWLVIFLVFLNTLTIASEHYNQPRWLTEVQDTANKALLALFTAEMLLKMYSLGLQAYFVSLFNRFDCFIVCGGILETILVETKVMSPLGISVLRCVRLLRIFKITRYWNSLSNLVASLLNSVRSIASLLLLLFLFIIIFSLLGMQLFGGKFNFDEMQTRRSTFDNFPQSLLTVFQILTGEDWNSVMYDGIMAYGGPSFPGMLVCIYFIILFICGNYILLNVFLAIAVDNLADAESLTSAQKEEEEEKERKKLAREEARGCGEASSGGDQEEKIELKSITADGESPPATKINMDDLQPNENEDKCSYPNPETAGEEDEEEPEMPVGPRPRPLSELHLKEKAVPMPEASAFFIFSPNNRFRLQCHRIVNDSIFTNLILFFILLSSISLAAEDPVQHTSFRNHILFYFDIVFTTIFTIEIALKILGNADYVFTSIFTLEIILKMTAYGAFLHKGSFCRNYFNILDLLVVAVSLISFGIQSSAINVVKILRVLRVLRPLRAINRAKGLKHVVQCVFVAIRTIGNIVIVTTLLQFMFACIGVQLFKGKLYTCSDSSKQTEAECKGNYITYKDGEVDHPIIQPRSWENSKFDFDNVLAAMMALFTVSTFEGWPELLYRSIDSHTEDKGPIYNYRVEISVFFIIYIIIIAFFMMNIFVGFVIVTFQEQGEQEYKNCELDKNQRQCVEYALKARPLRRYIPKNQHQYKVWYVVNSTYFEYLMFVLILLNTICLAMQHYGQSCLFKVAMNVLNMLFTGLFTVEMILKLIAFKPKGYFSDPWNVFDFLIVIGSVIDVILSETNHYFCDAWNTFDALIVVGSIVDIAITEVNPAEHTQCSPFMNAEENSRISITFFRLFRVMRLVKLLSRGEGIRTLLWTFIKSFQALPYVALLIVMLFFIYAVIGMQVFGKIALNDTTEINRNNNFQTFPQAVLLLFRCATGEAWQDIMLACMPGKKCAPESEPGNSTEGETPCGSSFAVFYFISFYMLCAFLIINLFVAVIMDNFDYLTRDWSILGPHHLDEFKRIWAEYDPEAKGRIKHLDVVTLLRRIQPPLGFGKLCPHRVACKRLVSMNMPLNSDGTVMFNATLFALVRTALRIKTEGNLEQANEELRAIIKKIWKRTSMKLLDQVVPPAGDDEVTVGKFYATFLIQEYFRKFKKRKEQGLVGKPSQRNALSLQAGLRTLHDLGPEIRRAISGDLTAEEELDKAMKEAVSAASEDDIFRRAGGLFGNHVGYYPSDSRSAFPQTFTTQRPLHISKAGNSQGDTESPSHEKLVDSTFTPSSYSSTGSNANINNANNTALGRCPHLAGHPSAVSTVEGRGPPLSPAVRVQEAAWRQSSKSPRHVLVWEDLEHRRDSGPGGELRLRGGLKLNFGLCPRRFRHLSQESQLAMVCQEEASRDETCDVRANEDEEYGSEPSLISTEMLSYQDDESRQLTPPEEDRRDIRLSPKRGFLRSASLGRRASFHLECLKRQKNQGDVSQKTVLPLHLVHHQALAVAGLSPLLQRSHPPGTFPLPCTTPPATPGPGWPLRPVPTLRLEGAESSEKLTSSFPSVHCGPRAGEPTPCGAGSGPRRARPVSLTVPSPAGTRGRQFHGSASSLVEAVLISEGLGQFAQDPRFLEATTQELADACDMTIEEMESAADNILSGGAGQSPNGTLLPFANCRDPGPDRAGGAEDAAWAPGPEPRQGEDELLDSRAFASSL
- Test Description: Receptor binding experiment using porcine myocardial microsomes (3H-nitrendipine)
- Cond: porcine myocardial microsomes, Ki=IC50/(1+[L]/Kd), average of two experiments; read-out: Ki (inhibition constant)
pKi: −log10 of the molar value.
Entries annotated with measured pKi
Endpoint: pKi

| Compound | Endpoint | Value |
| --- | --- | --- |
| CC1=C(C(=O)OC(C)C)[C@@H](c2cccc([N+](=O)[O-])c2)C(C(=O)OC2CN(C(c3ccccc3)c3ccccc3)C2)=C(N)N1 [R form] | pKi | 9.06 |
| CC1=C(C(=O)OC(C)C)[C@H](c2cccc([N+](=O)[O-])c2)C(C(=O)OC2CN(C(c3ccccc3)c3ccccc3)C2)=C(N)N1 [S form] | pKi | 6.34 |
| CC1=C(C(=O)OC(C)C)C(c2cccc([N+](=O)[O-])c2)C(C(=O)OC2CN(C(c3ccccc3)c3ccccc3)C2)=C(N)N1 (racemic) [Racemic form, reference compound] | pKi | 8.68 |
